system.tested: UniProt Q54A96
Sequence (Q54A96 whole entry): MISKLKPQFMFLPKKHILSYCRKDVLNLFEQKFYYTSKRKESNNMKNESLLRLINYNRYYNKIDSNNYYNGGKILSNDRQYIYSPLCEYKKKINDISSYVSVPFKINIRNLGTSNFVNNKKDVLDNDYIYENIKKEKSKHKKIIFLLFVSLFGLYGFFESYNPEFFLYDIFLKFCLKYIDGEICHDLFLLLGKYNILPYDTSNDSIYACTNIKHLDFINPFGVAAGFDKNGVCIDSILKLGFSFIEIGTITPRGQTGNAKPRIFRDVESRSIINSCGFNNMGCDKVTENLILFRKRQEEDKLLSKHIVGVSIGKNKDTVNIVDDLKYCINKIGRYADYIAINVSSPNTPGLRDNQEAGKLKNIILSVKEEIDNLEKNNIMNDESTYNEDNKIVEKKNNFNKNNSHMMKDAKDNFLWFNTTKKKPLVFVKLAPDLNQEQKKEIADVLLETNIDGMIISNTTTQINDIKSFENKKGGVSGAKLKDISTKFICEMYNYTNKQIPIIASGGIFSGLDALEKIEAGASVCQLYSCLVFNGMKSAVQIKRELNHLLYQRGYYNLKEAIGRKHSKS
protocol.notes: Inhibition of His6-tagged recombinant Plasmodium falciparum dihydroorotate dehydrogenase expressed in Escherichia coli using L-dihydroorotate as substrate after 5 to 10 mins by DCIP dye-based assay
yes (1) if IC50 is below 300 nM. no (0) if not; exact matches included in no (0).

# count of solved cases: 6
CCCCCCCNc1cc(C)nc2ncnn12 :: no (0)
Cc1cc(Nc2ccc(SC(F)(F)F)cc2)n2ncnc2n1 :: no (0)
Cc1cc(NC2CCc3cc(Cl)ccc3C2)n2ncnc2n1 (configuration not stated) :: no (0)
CCCCc1ccc(Nc2cc(C)nc3ncnn23)cc1 :: yes (1)
CCCCCCc1ccc(Nc2cc(C)nc3ncnn23)cc1 :: no (0)
Cc1cc(NC2CCc3ccccc3C2)n2ncnc2n1 (configuration not stated) :: no (0)

As a next step, examine the compound that follows.
Input COc1cc2c(cc1OC)CC(Nc1cc(C)nc3ncnn13)C2 ; condition: IC50 strictly below 300 nM. Does it hold?
no (0)

From: ChEMBL document CHEMBL1781999
